src = PubChem BioAssay AID522

target: Steroidogenic factor 1 (Homo sapiens) (UniProt Q13285); experiment: SF-1 ligand-binding domain transactivation enhancers – cell-based, CHO-K1, Gal4-SF-1 LBD, luciferase luminescence, primary screen (AID 522); details: CHO-K1 Gal4-SF-1 LBD luciferase reporter; at 10 µM; hits give high values; % increase over DMSO SF-1-specific signal
Sequence (Q13285 whole entry, looked up, the tested form may be a part): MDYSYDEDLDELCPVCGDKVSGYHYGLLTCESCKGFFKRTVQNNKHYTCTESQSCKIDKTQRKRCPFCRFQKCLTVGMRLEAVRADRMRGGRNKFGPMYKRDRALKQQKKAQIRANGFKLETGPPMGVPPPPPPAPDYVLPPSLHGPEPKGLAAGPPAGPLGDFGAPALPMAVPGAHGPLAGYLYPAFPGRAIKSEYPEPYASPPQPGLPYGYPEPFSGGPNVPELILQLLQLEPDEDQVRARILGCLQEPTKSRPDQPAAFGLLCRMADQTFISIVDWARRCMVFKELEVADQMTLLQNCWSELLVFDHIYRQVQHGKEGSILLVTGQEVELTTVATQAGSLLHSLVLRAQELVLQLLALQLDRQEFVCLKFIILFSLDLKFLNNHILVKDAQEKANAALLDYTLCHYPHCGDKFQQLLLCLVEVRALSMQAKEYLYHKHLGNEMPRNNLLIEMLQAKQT
The campaign covered roughly 65,000 compounds. About 1,200 (1.8%) were called active. Shown is part of a subset that was picked to be rich in actives.
metric.name: activation (%)
Give the value, in units of %, as a plain number.

**Q:** Using the record for Cc1cccc(-n2c(N)c(C(=O)N3CCN(C)CC3)sc2=S)c1 , state its measured activation.
**A:** 3.5

**Q:** Using the record for CC(Sc1sc(=S)sc1SC(C)C(=O)O)C(=O)O (stereo not given) , state its measured activation.
**A:** -6.9

**Q:** Using the record for COc1ccc(CC(=O)Nc2ccc(-c3nnc(-c4ccc(C)cc4)o3)cc2)cc1 , state its measured activation.
**A:** -47.6

**Q:** Using the record for Cc1ccc(OCC(=O)Nc2ccc(-c3nnc(-c4ccco4)o3)cc2)cc1 , state its measured activation.
**A:** 65.5

**Q:** Using the record for Nc1ncc(-c2cc3ccccc3oc2=O)s1 , state its measured activation.
**A:** 79.3

**Q:** Using the record for CN(C(=O)c1ccccn1)c1nnc(-c2ccccn2)s1 , state its measured activation.
**A:** 56.6

**Q:** Using the record for CCCn1c(O)c(CN2CCCC(C)C2)c(C)c(C#N)c1=O (stereo not given) , state its measured activation.
**A:** -4.9

**Q:** Using the record for O=C(NCc1ccccn1)c1cc2ccccc2oc1=O , state its measured activation.
**A:** 12.4

**Q:** Using the record for CC(C)Cc1cc(C(=O)Nc2cc(Br)ccc2O)no1 , state its measured activation.
**A:** 11.7

**Q:** Using the record for CNC(=O)NCCN1CCCC1=O , state its measured activation.
**A:** 1

**Q:** Using the record for CCC(=O)Oc1cccc(C(=O)Nc2ccc(-c3nnc(-c4ccco4)o3)cc2)c1 , state its measured activation.
**A:** 79.8

**Q:** Using the record for CCOc1ccccc1Nc1nnc(SCC(=O)Nc2cc(C)on2)s1 , state its measured activation.
**A:** -12.5

**Q:** Using the record for COc1ccc(OCC(=O)N2CCN(C(=O)COc3ccccc3)CC2)cc1 , state its measured activation.
**A:** -5.8

**Q:** Using the record for CCN(C(=O)CSc1ncn[nH]1)c1cccc2ccccc12 , state its measured activation.
**A:** 16.4

**Q:** Using the record for O=C1CCC(C(=O)Nc2ccc(OC(F)F)cc2)N1 (stereo not given) , state its measured activation.
**A:** -10.9

**Q:** Using the record for Cc1cc(C(=O)NCCCc2ccccc2)no1 , state its measured activation.
**A:** 16.8

**Q:** Using the record for Cn1c2c(c(=O)n(C)c1=O)C(c1ccc(O)cc1)Nc1ccccc1O2 (stereo not given) , state its measured activation.
**A:** -0.7

**Q:** Using the record for C=CCn1c(=O)c2ccccc2n2c(SCC(=O)N3CCCc4ccccc43)nnc12 , state its measured activation.
**A:** -8.3

**Q:** Using the record for CC(=O)Oc1ccc(C)cc1N1C(=O)c2ccc(C(=O)O)cc2C1=O , state its measured activation.
**A:** -0.3

**Q:** Using the record for Cc1cccc(-n2nc3c(c2NC(=O)c2ccc(Br)o2)CSC3)c1C , state its measured activation.
**A:** 9.6
